Just for reference, ChEMBL document CHEMBL5365531 is where these values come from.

- assay_explanation: Cytotoxicity against African green monkey Vero E6 cells in presence of P-glycoprotein inhibitor, CP100356
- Format: toxicity, cell-based, Vero C1008
- condition_summary: chlorocebus sabaeus, with CP100356 (P-glycoprotein inhibitor)
Below: a set of entries, each annotated with reported CC50.
readout_type: CC50

- CC(C)(C)[C@H](NC(=O)C(F)(F)F)C(=O)N1C[C@H]2[C@@H]([C@H]1C(=S)N[C@@H](C[C@@H]1CCNC1=O)C(=O)c1nc3c(F)cccc3s1)C2(C)C: > 100 µM
- CC(C)(C)[C@H](NC(=O)C(F)(F)F)C(=O)N1C[C@H]2[C@@H]([C@H]1C(=O)N[C@@H](C[C@@H]1CCNC1=O)C(=O)c1nc3c(F)cccc3s1)C2(C)C: > 100 µM

* * *

Below: a set of entries, each annotated with reported CC50.
- assay_explanation: Cytotoxicity against human A549-hACE2-TMPRSS2 cells
- Assay type: toxicity, cell-based
readout_type: CC50

- CC(C)(C)[C@H](NC(=O)C(F)(F)F)C(=O)N1C[C@H]2[C@@H]([C@H]1C(=S)N[C@@H](C[C@@H]1CCNC1=O)C(=O)c1nc3c(F)cccc3s1)C2(C)C: > 100 µM
- CC(C)(C)[C@H](NC(=O)C(F)(F)F)C(=O)N1C[C@H]2[C@@H]([C@H]1C(=O)N[C@@H](C[C@@H]1CCNC1=O)C(=O)c1nc3c(F)cccc3s1)C2(C)C: > 100 µM
